Provenance of the data: patent US5856341A

Uterine Weight % Increase verses ovariectomized controls reference
- Tested on: uterus
- method_summary: Uterine weight in ovariectomized rats, 4 days daily oral dosing (postmenopausal model)
- Assay type: in vivo, Sprague Dawley rats
- settings: 1 mg/kg PO, daily for 4 days, OVX rats
Give the quantity in %, number only.

COc1ccc2c(c1)C(O)(c1ccc(OCCN3CCCCC3)cc1)c1c-2sc2cc(OC)ccc12 (stereo not drawn) [Example 3B] = 43.0

Lookup: Return value of Uterine Weight % Increase verses ovariectomized controls for input c1ccc2c(c1)-c1sc3ccccc3c1C2c1ccc(OCCN2CCCCC2)cc1 (stereo not drawn) [Example 1B] , no commentary.
Found: 31.8

Lookup: Fill in Uterine Weight % Increase verses ovariectomized controls for record COc1ccc2c(c1)-c1sc3cc(OC)ccc3c1C2c1ccc(OCCN2CCCCC2)cc1 (stereo not drawn) [Example 1A]
Found: 21.6

Lookup: For the compound Cl.Oc1ccc2c3c(sc2c1)-c1ccccc1C3c1ccc(OCCN2CCCCC2)cc1 (stereo not drawn) [Example 6] , give its measured Uterine Weight % Increase verses ovariectomized controls value.
Found: 67.4

Lookup: Give the reported value of Uterine Weight % Increase verses ovariectomized controls for this record: Oc1ccc2c(c1)-c1sc3cc(O)ccc3c1C2c1ccc(OCCN2CCCCC2)cc1 (stereo not drawn) [Example 2]
Found: 25.6

Lookup: Consider the compound COc1ccc2c3c(sc2c1)-c1ccccc1C3c1ccc(OCCN2CCCCC2)cc1 (stereo not drawn) [Example 5A] . State its measured Uterine Weight % Increase verses ovariectomized controls.
Found: 63.5
